- TARGET_ENTITY: PI3K δ (Homo sapiens (Human), UniProt O00329)
- Sequence (O00329 whole entry): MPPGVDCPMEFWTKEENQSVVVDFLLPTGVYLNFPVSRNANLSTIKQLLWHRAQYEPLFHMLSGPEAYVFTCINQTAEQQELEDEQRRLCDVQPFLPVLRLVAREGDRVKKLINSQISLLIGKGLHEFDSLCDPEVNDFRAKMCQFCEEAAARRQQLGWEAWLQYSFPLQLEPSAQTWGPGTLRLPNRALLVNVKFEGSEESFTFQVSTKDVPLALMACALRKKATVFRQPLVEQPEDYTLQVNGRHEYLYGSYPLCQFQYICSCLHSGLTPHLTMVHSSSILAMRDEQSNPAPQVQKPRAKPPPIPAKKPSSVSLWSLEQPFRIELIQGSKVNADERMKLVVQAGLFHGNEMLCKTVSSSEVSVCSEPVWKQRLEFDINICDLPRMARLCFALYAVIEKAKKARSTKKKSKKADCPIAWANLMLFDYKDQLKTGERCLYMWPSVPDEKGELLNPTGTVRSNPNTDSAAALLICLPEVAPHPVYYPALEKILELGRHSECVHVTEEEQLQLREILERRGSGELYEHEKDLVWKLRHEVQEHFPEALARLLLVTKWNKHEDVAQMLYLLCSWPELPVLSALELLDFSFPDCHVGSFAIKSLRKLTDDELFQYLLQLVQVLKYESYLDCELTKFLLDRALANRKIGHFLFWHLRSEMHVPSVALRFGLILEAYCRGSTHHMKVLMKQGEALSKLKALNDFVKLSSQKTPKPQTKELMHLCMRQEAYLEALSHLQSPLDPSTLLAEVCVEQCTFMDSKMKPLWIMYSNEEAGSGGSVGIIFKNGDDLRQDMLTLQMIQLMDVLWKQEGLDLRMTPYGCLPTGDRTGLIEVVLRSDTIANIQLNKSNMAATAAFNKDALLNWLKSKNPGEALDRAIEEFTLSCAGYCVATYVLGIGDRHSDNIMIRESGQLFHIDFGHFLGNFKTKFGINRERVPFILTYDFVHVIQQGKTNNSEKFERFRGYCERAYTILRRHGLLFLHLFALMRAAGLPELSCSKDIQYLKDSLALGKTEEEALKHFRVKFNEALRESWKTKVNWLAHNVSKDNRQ
- Sequence (P27986 whole entry partner): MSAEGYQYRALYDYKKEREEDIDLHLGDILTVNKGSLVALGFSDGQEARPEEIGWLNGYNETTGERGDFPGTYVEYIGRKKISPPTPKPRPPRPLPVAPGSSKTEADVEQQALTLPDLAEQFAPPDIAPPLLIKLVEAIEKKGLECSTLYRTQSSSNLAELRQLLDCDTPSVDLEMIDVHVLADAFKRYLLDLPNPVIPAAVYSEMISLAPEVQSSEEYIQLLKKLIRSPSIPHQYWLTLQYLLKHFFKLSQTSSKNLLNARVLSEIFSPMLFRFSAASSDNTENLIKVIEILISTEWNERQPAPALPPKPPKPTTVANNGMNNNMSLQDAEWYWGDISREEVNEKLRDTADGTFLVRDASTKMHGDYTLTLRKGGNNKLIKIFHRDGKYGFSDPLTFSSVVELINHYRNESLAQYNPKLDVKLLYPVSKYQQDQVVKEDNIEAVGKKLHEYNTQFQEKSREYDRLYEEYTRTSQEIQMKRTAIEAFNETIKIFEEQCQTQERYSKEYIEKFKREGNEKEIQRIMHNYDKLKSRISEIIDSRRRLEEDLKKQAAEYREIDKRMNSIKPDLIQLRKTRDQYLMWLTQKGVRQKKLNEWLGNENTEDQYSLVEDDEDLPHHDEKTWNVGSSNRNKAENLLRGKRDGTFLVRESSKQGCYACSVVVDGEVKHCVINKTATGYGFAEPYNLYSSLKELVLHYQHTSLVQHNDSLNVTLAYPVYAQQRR
pIC50: −log10 of the molar value.
METRIC: pIC50

INSERT INTO results (item_smiles, metric, result_value) VALUES
  ('C[C@H](NC(=O)c1c(N)nn2cccnc12)c1nc2cccc(C#CC(C)(C)C)c2c(=O)n1-c1ccccc1', 'pIC50', '5.00 to 5.30');

====

- METHOD_DESCRIPTION: Human hep viability
- Format: cell-based
- REPORTED_CONDITIONS: human hepatocytes
METRIC: IC50

INSERT INTO results (molecule, result_value) VALUES
  ('C[C@H](NC(=O)c1c(N)nn2cccnc12)c1cc2cccc(C#Cc3cnn(C)c3)c2c(=O)n1-c1ccccc1 [Compound BB]', '10 to 25 µM');
